# Test system: Trypanosoma brucei
# Measurement Protocol: DNDI: Inhibition of Human African Trypanosomiasis, SBRI 427, in vitro at 2 ug.mL-1
# Format: functional
The campaign covered roughly 4,400 compounds. About 390 (8.9%) showed an effect of 50% or more. Shown is part of a subset that was picked to be rich in strong results.
Listed here: items and their measured % inhibition.
Please respond with the number in % and leave the unit unwritten.

# Compound, Meas Value
measured = [
    ("CCOc1ccccc1CN/C(=N\\O)c1ccc(C)nc1Oc1cc(Cl)ccc1Cl", 26),
    ("Cc1cc(Oc2ccc(/C(=N/O)NC3CC3)cn2)cc(C(C)C)c1", 62),
    ("Cc1cc(C)cc(CN/C(=N\\O)c2ccc(Oc3cc(C)cc(C(C)C)c3)nc2)c1", 19),
    ("Cc1cc(Oc2ccc(/C(=N/O)NCC3CC3)cn2)cc(C(C)C)c1", 97),
    ("CCOc1ccccc1CN/C(=N\\O)c1cccnc1Oc1cc(Cl)ccc1Cl", 100),
    ("CCN(CC)c1cccc(Oc2ncccc2/C(=N/O)NCC2CC2)c1", 6),
    ("CCOc1ccccc1CN/C(=N\\O)c1cccnc1Oc1ccc(OC)cc1", 98),
    ("CCOc1ccccc1-c1nc(CN2CCC3(CC2)OCCO3)co1", 1),
    ("O/N=C(\\NC1CCCCC1)c1ccc(Oc2c(F)c(F)cc(F)c2F)nc1", 100),
    ("Cc1cc(C)cc(Oc2ccc(/C(=N/O)NCC(C)(C)C)cn2)c1", 98),
]

query: GET % inhibition where system = Trypanosoma brucei and item = `CC(C)CN/C(=N\O)c1ccc(Oc2ccc3ccccc3c2)nc1`
result: 2

query: GET % inhibition where system = Trypanosoma brucei and item = `CCOc1ccccc1CN/C(=N\O)c1cccnc1Oc1ccc2oc3ccccc3c2c1`
result: 14

query: GET % inhibition where system = Trypanosoma brucei and item = `Cc1ccccc1CN/C(=N\O)c1cccnc1OCC(C)C`
result: 11
